These measurements were taken from patent US20150140000A1.

# target-or-system: wild-type human TLR3 ECD-CD32 construct (V5-TLR3-CD32) on HEK293T cells (human)
# run-description: flow cytometry, 293T cells expressing TLR3/CD32 solely at the surface, neutral pH
measured-attribute: EC50 (µg/mL)

- binder: "antibody 31F6 (antibody, V domains shown, Rat monoclonal from LOU/c immunization #2; also called clone 31F6) VH: EVQLQQSGAELGKPGTSVKLSCKVSGYNIRYTYMHWVNQRPGKGLEWIGRIDPANGDSIYGEDFKTKATLTADTSSNTAYMQLSQLKSDDTAIYFCAMGEFDYFDYWGQGVMVTVSSASTK VL: DIQMTQSPPSLSASLGETVSIECLASEGISNDLAWYQQRSGKSPQLLIYAASRLQDGVPSRFSGSGSGTRYSLKISGMQPEDEADYFCQQNYKYPLTFGSGTKLEIK"
  measured-attribute: "EC50"
  value-measured: 0.026
- binder: "antibody 7G11 (antibody, V domains shown, Rat monoclonal from LOU/c immunization #2; also called clone 7G11) VH: EVQLQQYGAELGKPGTSVKLSCKVSGYNITYTYMHWVNQRPGKGLEWIGRIDPANGNTIYGEKFKNKATLTADTSSNTAYMQLSQLKSDDTAIYFCAMGEFDYFDHWGQGVMVTVSS VL: DIQMTQSPASLSASLGETVSIECLASEDISNDLAWYQQKSGKSPQVLIYAASRLEDGVPSRFSGSGSGTRYSLKISGMQPEDEADYFCQQSYKYPVTFGSGTKLEIK"
  measured-attribute: "EC50"
  value-measured: 0.021
- binder: "antibody 11E1 (antibody, V domains shown, Mouse monoclonal from Balb/c immunization #1; also called clone 11E1) VH: QVQLQQPGAELVRPGASVKLSCKASGYTFTNYWMNWVKQRPGQGLEWIGMIDPSDSETHYNQMFKDKATLTVDKSSSTAYMQLSSLTSEDSAVYYCARGGASSDYYYFDYWGQGTTLTVSSASTK VL: ETTVTQSPASLSMAIGEKVTIRCITSTDIHDDINWYQQKPGEPPKLLISEGNTLRPGVPSRFSSSGYGTDFVFTIENMLSEDVADYYCLQSDNLPRTFGGGTKLEIKRT"
  measured-attribute: "EC50"
  value-measured: 0.016
